MEASUREMENT PROTOCOL: soluble fraction after stress (log2 fold change); higher = more stays soluble; pooled small domains, quantitative proteomics
MEASUREMENT CONDITIONS: stress: pH 4
Field: soluble fraction (log2). Provide a value for each of the sequences that follow.
Answer field: number only, no words.

(Q) // returns reported soluble fraction (log2) for input HMNVWGLSERELEATRLLIEGFSSKEASARMGISPSTVRSLWGRARAKMGVDSIEDARELVA
(A) -0.273

(Q) // returns reported soluble fraction (log2) for input HMPLSDAEKAAAIATQAKERALKLSPEMISYLLRHASRDMRTLSMLVVALDQYTLEQKRPVTLPLLRELLS
(A) -0.0153

(Q) // returns reported soluble fraction (log2) for input HMKISIDNPSVLLDKLATLFPDTSKNKLRKMLTEGRIYVNDNIEHRAKRELINGDTVKILDKTTSKE
(A) -0.0228

(Q) // returns reported soluble fraction (log2) for input HMQNREQNILDGKSILDKELKRVGLLNQSAAIMAQEMKFNSQDDLFAALGSGATRIGQIINHLQKQS
(A) 0.0793

----------
MEASUREMENT PROTOCOL: soluble fraction after stress (log2 fold change); higher = more stays soluble; pooled small domains, quantitative proteomics
MEASUREMENT CONDITIONS: stress: pH 4
Binning scheme for soluble fraction (log2): zone 1 (below -0.5), zone 2 (-0.5 to below 0.05), zone 3 (0.05 or more)

(Q) Into which category would you place HMDKEPTHLHTFRLIKEGKSSEEIAEIRNITLGTVNTHLAKLIAVGELTIEQVISKHRLDYVMEAIKNSK ?
(A) zone 1

(Q) Into which category would you place HMSAMKYTSEVFQRLSRGQFISSNSIDAETRAIYSDIEENQQEYEDYFSKIDFLLSSGDGFYYFSRK ?
(A) zone 1

(Q) Into which category would you place HMTTSNPMNVTSAEAAFDNGTDRLNAFISGRTTSEERSTYFPLFVRETKEDFLRAVGRFNEYIANHG ?
(A) zone 3

(Q) Into which category would you place HMTSAIAEGTVIRLTQSTNIRESMSEDAPKVATAFSGEKVTVIMSYAEGWTKVTYGDKTGYIKTELL ?
(A) zone 2

(Q) Into which category would you place HMKLHQDLQIKVIDAANNKVEFIDTATGTSLATRTLDVNGVSKARGFEATLYGVVEDNDVFHIA ?
(A) zone 2

(Q) Into which category would you place HMSFSQNIGKRIREERLRLNLTQEKLAEDVNLSMAYIGQVERGDRSLTLDNLIIVAKRLGVTIDYLLS ?
(A) zone 2

(Q) Into which category would you place HMINFSKNIISDTTSIKEAIEILNIISGRDNHILFVLNDKRQLIGTLSDGDVRRGMLASKTISQSVTEVM ?
(A) zone 2

(Q) Into which category would you place HMGSPVTAVMNRVLNETERQIVTLHVISGFKHREIAELLEKPVGTVLWTYNNALGKMRKAMQRE ?
(A) zone 1

(Q) Into which category would you place HMKPSTVSVPDVSGDKLSTAKMIIRKSGLKVGDVQKIEDDNVGAGKVVRTNPSAGSKKREGSSVDIFVASA ?
(A) zone 3

(Q) Into which category would you place HMLPIKLDLEIGENVRVVSGPLENFVGSVVSFDTDQQKVKLVVEMFGRKTPVELDFIEVQKLR ?
(A) zone 1

(Q) Into which category would you place HMARVSGIDLPKNKRGYIGLTYIYGIGRSTALHILNSAGVDPEKKVHEWNDDETTAIRNIINAEIKVEGAL ?
(A) zone 2

(Q) Into which category would you place HMLPAGAAAPLEDGSAPEGYTVKGNADSGLYHEPDGRWYDATVAEFWFKTAADAEAAGFRKAGS ?
(A) zone 1

(Q) Into which category would you place HMETPSNTAGITHATSDGYIFKGESDIIGRNSFGFIVKHGSHNHIIPFDSLRGTKWEYLINKYT ?
(A) zone 2

(Q) Into which category would you place HMVITDPFFLEPENLVKDAVALMEKYRISGVPITKKGKLVGILTNRDLRFESNYEQPIANVMS ?
(A) zone 2

(Q) Into which category would you place HMVEPTDFTYLKAEVETAKALKQADYTVATWKSFAGELAEAEEVIAKTDASQAEVNEALSHLQAAEKELV ?
(A) zone 3

(Q) Into which category would you place HMDTFYKNLSKKIKTIREKLSFSQEALAKELGISRVAISQIENGDRKISAEEIAKLSRVFNVPTDILLN ?
(A) zone 3

(Q) Into which category would you place HMHETMGQIIKRLRKERGLTQESLAERLGVTFQAVSKWETDAGMPDVSQIVPLANAFGVRTDVLFGLEGRD ?
(A) zone 3

(Q) Into which category would you place HMYEGLPVTLIIDGRVIEANLAKANRDMAWLERELANSGVRSHHDVFFATLDSRGQLYYQVKN ?
(A) zone 1

(Q) Into which category would you place HMDYPFQYFNYSHLRILGVPAQLIKAVRKAPTLDAIEQLSGLSEKTKLWLLELATEPKLEDVLFDPGR ?
(A) zone 1

(Q) Into which category would you place HMPKDMAKRASILTAASKLFVQHGYGGVSMDQIAAEAGVSKLTVYSHYGDKDSLFAAAVQAH ?
(A) zone 3

(Q) Into which category would you place HMQKNKSVLFKDIVIAFNQNPKKLFNYKQLAADLDIHSEAERMLISQLLNDLKDQNFLEEVERGKYKLKL ?
(A) zone 2

(Q) Into which category would you place HMTGIVVVDVVGQVGRPGLVSLPAGSRVADAITAAGGATPEADVSLLNQARLVIDGEQIRVPRPGEVIAA ?
(A) zone 3

(Q) Into which category would you place HMTVKKLTINEDNSGRRIDNYLLSIFNSLPRSKIYNIIRKGEVRVNSSRIKPNYRLEQGDLVRIPPNLEFT ?
(A) zone 3

(Q) Into which category would you place HMGTEITEQRAKEIALENAKVAESDVTAMRVKKEMDDGVWRYDVEFYVQNKEYDYEINAMDGTILSVDYD ?
(A) zone 3

(Q) Into which category would you place HMRWGDPLTVKVPSFIGQTKDDIAKQHYPFRIEWHGEGAKIGSQLPEVDSVIKQDGTIHLYLV ?
(A) zone 2

(Q) Into which category would you place HMEKILSYKALMNDAGKRIDQFLANNEKDISRTRIKSLILEGSLKLDNNIINDPSYKIKENDVFTLFIPEA ?
(A) zone 3

(Q) Into which category would you place HMSGDYRPLYPNLPESEKSEAFNLLAGSALPARLDDRTGDIMVPADRYYEARMILANAGFAD ?
(A) zone 3

(Q) Into which category would you place HMTIYLSENIKRLRLEKELTQETLSEFLGVTSQSVSNWERGESYPDITMLPEIADFFKVSVDELLGVNRAE ?
(A) zone 1

(Q) Into which category would you place HMTNIQFINLKMTDNHPWIHQYIKDIILPPQTRIVMIKRNDIKTIPKGERRIEKDDELILSAFESQT ?
(A) zone 1

(Q) Into which category would you place HMKSARDDILSALDKAGEPLSMKDIAELSGRKLSTLRAQMTRLVAEGAVQATAAAHSPDRKYRK ?
(A) zone 2

(Q) Into which category would you place HMPAVGGVVKGAVVSVGRNEVRLDIGGLAIGIIRGPELDKHVDLRIGDEVEATVITLDNEFGELELSL ?
(A) zone 1

(Q) Into which category would you place HMSAVIGTATVTTSSGSLNLRESASLYSRVIRTIPRGATVDVLSRDTSWSRVRYAGSEGYVLNQYLTFQT ?
(A) zone 3

(Q) Into which category would you place HMIDLPEAFIQQLKEAVDVGDVTGLRELLGQLRRRYPQQSALSDEAERLLREFDFERLAQLFEGLD ?
(A) zone 1
